# targetEntity: PI3K delta (Homo sapiens)
# Sequence (O00329 whole entry): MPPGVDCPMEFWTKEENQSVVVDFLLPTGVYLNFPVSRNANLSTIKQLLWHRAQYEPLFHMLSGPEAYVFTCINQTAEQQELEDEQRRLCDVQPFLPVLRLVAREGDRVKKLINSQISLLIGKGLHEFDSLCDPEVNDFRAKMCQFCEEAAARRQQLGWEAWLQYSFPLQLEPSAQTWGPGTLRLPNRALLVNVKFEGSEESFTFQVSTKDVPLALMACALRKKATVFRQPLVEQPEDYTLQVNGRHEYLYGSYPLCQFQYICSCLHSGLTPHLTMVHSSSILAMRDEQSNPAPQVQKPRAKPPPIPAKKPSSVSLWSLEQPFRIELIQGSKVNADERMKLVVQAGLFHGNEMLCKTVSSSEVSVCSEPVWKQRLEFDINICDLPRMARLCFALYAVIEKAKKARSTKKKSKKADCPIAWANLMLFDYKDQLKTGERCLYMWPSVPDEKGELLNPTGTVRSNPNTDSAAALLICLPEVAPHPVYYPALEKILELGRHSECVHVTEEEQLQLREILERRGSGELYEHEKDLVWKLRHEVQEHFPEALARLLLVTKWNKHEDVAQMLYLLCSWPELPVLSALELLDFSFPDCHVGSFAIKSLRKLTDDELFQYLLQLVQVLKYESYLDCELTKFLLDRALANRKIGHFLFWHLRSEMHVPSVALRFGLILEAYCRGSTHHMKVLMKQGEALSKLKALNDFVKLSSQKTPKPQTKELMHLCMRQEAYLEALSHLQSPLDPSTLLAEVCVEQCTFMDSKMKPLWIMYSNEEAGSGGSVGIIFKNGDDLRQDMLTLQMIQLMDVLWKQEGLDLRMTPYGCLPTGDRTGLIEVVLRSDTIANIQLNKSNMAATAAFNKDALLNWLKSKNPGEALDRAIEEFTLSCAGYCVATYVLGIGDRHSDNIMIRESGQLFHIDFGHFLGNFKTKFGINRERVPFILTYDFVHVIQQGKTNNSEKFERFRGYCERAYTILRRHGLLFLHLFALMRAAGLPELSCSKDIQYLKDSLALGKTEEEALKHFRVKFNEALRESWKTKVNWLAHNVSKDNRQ
# Sequence (P27986 whole entry partner): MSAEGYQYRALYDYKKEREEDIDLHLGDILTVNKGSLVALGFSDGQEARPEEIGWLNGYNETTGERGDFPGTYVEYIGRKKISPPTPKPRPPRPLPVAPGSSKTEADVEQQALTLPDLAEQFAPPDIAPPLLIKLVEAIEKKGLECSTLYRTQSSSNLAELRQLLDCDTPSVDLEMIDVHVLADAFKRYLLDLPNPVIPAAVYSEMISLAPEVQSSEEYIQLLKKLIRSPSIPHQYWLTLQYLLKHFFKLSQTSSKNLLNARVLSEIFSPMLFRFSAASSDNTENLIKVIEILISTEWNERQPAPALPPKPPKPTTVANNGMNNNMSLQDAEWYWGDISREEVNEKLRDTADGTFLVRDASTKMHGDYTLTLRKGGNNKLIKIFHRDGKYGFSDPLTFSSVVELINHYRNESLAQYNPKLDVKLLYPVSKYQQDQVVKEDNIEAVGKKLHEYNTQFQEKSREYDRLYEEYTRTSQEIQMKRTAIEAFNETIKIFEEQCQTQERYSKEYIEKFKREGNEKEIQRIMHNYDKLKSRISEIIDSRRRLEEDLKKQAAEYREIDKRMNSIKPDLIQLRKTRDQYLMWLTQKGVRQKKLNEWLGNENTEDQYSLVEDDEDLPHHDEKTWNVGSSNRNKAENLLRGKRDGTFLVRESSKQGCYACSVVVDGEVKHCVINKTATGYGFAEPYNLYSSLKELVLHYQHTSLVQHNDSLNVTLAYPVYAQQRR
# procedureSummary: Luciferase-coupled chemiluminescence kinase assay (ATP consumption, KinaseGlo)
Task for the reader: assign each of the following compounds its reported IC50.

Q: Quick one: give measured IC50 for Cn1c(C(=O)NCC(F)(F)F)nc2c(N3CCC(n4c(=O)[nH]c5ccccc54)CC3)ncnc21
Ans: < 50 nM

Q: Quick one: give measured IC50 for CCCn1cc(-c2nc3c(N4CCC5(CC4)C(=O)Nc4ccccc45)ncnc3n2C)cn1
Ans: < 50 nM

Q: Quick one: give measured IC50 for Cn1c(C(=O)NCC2CCOCC2)nc2c(N3CCC(n4c(=O)[nH]c5ccccc54)CC3)ncnc21
Ans: < 50 nM

Q: Quick one: give measured IC50 for CCn1c(-c2cnn(C)c2)nc2c(N3CCC(n4c(=O)[nH]c5ccccc54)CC3)ncnc21
Ans: < 50 nM

Q: Quick one: give measured IC50 for Cn1c(C(=O)NCC2CC2)nc2c(N3CCC4(CC3)NC(=O)c3ccccc34)ncnc21
Ans: 500 to 1500 nM

Q: Quick one: give measured IC50 for Cn1c(C(=O)NCCO)nc2c(N3CCC4(CC3)C(=O)Nc3ccccc34)ncnc21
Ans: 250 to 500 nM

Q: Quick one: give measured IC50 for Cn1cc(-c2nc3c(N4CCN(S(=O)(=O)c5ccccc5C#N)CC4)ncnc3n2C)cn1
Ans: 250 to 500 nM

Q: Quick one: give measured IC50 for CCCNC(=O)c1nc2c(N3CCC(n4c(=O)[nH]c5ccccc54)CC3)ncnc2n1CC
Ans: < 50 nM

Q: Quick one: give measured IC50 for Cn1c(-c2cncnc2)nc2c(N3CCC4(CC3)C(=O)Nc3ccccc34)ncnc21
Ans: < 50 nM

Q: Quick one: give measured IC50 for CCn1c(-c2cnn(C)c2C)nc2c(N3CCC(n4c(=O)[nH]c5ccccc54)CC3)ncnc21
Ans: < 50 nM

Q: Quick one: give measured IC50 for COc1ccc(CNC(=O)c2nc3c(N4CCC5(CC4)C(=O)Nc4ccccc45)ncnc3n2C)cc1
Ans: 500 to 1500 nM

Q: Quick one: give measured IC50 for C#CCNC(=O)c1nc2c(N3CCC(n4c(=O)[nH]c5ccccc54)CC3)ncnc2n1C
Ans: 50 to 250 nM

Q: Quick one: give measured IC50 for Cn1cc(-c2nc3c(N4CCN(c5ccccc5CNS(=O)(=O)c5ccc6ccccc6c5)CC4)ncnc3n2C)cn1
Ans: 500 to 1500 nM

Q: Quick one: give measured IC50 for CCn1c(C(=O)NCC(C)(C)C)nc2c(N3CCC4(CC3)C(=O)Nc3ccccc34)ncnc21
Ans: < 50 nM

Q: Quick one: give measured IC50 for CCn1c(C(=O)NCC(F)(F)F)nc2c(N3CCC4(CC3)C(=O)Nc3ccccc34)ncnc21
Ans: < 50 nM

Q: Quick one: give measured IC50 for Cn1c(C(=O)N2CC[C@H](F)C2)nc2c(N3CCC(n4c(=O)[nH]c5ccccc54)CC3)ncnc21
Ans: 50 to 250 nM

====

Task for the reader: assign each of the following compounds its reported pIC50.
# targetEntity: PI3K delta (Homo sapiens)
# procedureSummary: Luciferase-coupled chemiluminescence kinase assay (ATP consumption, KinaseGlo)
pIC50: −log10 of the molar value.

Q: Quick one: give measured pIC50 for Cn1cc(-c2nc3c(N4CCN(S(=O)(=O)c5ccccc5Cl)CC4)ncnc3n2C)cn1
Ans: 6.30 to 6.60

Q: Quick one: give measured pIC50 for CCn1c(C(=O)NCC(F)(F)F)nc2c(N3CCC(n4c(=O)[nH]c5ccccc54)CC3)ncnc21
Ans: > 7.30

Q: Quick one: give measured pIC50 for CCOC(=O)c1nc2c(N3CCC(n4c(=O)[nH]c5ccccc54)CC3)ncnc2n1C
Ans: 5.82 to 6.30

Q: Quick one: give measured pIC50 for COC(=O)C1(c2ccccc2)CCN(c2ncnc3c2nc(-c2cnn(C)c2)n3C)CC1
Ans: 5.82 to 6.30

Q: Quick one: give measured pIC50 for Cn1c(C(=O)N2CC[C@H](F)C2)nc2c(N3CCC4(CC3)C(=O)Nc3ccccc34)ncnc21
Ans: 6.60 to 7.30

Q: Quick one: give measured pIC50 for Cn1c(C(=O)NCCc2ccccn2)nc2c(N3CCC(n4c(=O)[nH]c5ccccc54)CC3)ncnc21
Ans: 5.82 to 6.30

Q: Quick one: give measured pIC50 for Cn1c(C(=O)N2CCC(F)(F)C2)nc2c(N3CCC4(CC3)C(=O)Nc3ccccc34)ncnc21
Ans: 6.60 to 7.30

Q: Quick one: give measured pIC50 for CCn1ncc(-c2nc3c(N4CCC(n5c(=O)[nH]c6ncccc65)CC4)ncnc3n2C)c1C
Ans: > 7.30

Q: Quick one: give measured pIC50 for Cn1c(C(=O)NCC2CC2)nc2c(N3CC(n4c(=O)[nH]c5cc(C(F)(F)F)ccc54)C3)ncnc21
Ans: 6.30 to 6.60

Q: Quick one: give measured pIC50 for Cn1c(C(=O)NCC2CCOCC2)nc2c(N3CCC4(CC3)C(=O)Nc3ccccc34)ncnc21
Ans: 6.60 to 7.30

Q: Quick one: give measured pIC50 for Cn1c(C(=O)NCC2(O)CC2)nc2c(N3CCC(n4c(=O)[nH]c5ccccc54)CC3)ncnc21
Ans: 6.60 to 7.30

Q: Quick one: give measured pIC50 for CCn1cc(-c2nc3c(N4CCC5(CC4)C(=O)Nc4ccccc45)ncnc3n2C)cn1
Ans: > 7.30

Q: Quick one: give measured pIC50 for Cn1c(C(=O)NCC2CC2)nc2c(N3CCC4(CC3)Nc3ccccc3NC4=O)ncnc21
Ans: 5.82 to 6.30

Q: Quick one: give measured pIC50 for Cn1cc(-c2nc3c(N4CCN(c5ccccc5S(C)(=O)=O)CC4)ncnc3n2C)cn1
Ans: 5.82 to 6.30

Q: Quick one: give measured pIC50 for Cn1c(C(=O)NCC2CC2)nc2c(N3CC=C(n4c(=O)[nH]c5ccccc54)CC3)ncnc21
Ans: 6.60 to 7.30

Q: Quick one: give measured pIC50 for CCn1c(C(=O)NCCC(C)C)nc2c(N3CCC4(CC3)C(=O)Nc3ccccc34)ncnc21
Ans: 6.60 to 7.30

====

Task for the reader: assign each of the following compounds its reported IC50.
# targetEntity: PI3K delta (Homo sapiens)
# procedureSummary: Luciferase-coupled chemiluminescence kinase assay (ATP consumption, KinaseGlo)
# Format: biochemical

Q: Quick one: give measured IC50 for Cn1cc(-c2nc3c(N4CCN(c5cccc(OCC(=O)N6CCCCCC6)c5)CC4)ncnc3n2C)cn1
Ans: 250 to 500 nM

Q: Quick one: give measured IC50 for CC(C)Cc1nnc(-c2nc3c(N4CCC(n5c(=O)[nH]c6ccccc65)CC4)ncnc3n2C)o1
Ans: < 50 nM

Q: Quick one: give measured IC50 for CC(C)n1cc(-c2nc3c(N4CCC(n5c(=O)[nH]c6ccccc65)CC4)ncnc3n2C)cn1
Ans: < 50 nM

Q: Quick one: give measured IC50 for CCCCNC(=O)c1nc2c(N3CCC4(CC3)C(=O)Nc3ccccc34)ncnc2n1C
Ans: 50 to 250 nM

Q: Quick one: give measured IC50 for Cn1c(C(=O)NCC2CC2)nc2c(N3CCC(n4c(=O)[nH]c5cc(F)ccc54)CC3)ncnc21
Ans: 50 to 250 nM

Q: Quick one: give measured IC50 for Cn1c(C(=O)NCC2CCCO2)nc2c(N3CCC4(CC3)C(=O)Nc3ccccc34)ncnc21 (stereo not shown)
Ans: 500 to 1500 nM

Q: Quick one: give measured IC50 for CC(C)CCNC(=O)c1nc2c(N3CCC4(CC3)C(=O)Nc3ccccc34)ncnc2n1C
Ans: 50 to 250 nM

Q: Quick one: give measured IC50 for Cc1nnc(-c2nc3c(N4CCC(n5c(=O)[nH]c6ccccc65)CC4)ncnc3n2C)n1C
Ans: 50 to 250 nM

Q: Quick one: give measured IC50 for Cn1c(-c2cncnc2)nc2c(N3CCC(n4c(=O)[nH]c5ccccc54)CC3)ncnc21
Ans: < 50 nM

Q: Quick one: give measured IC50 for Cn1c(C(=O)NC2CCOCC2)nc2c(N3CCC4(CC3)C(=O)Nc3ccccc34)ncnc21
Ans: 50 to 250 nM

Q: Quick one: give measured IC50 for Cn1c(C(=O)NCC2CC2)nc2c(N3CCC(n4c(=O)[nH]c5c(Cl)cccc54)CC3)ncnc21
Ans: 50 to 250 nM

Q: Quick one: give measured IC50 for Cn1c(-c2cccnc2)nc2c(N3CCC4(CC3)C(=O)Nc3ccccc34)ncnc21
Ans: < 50 nM

Q: Quick one: give measured IC50 for Cc1nnc(-c2nc3c(N4CCC(n5c(=O)[nH]c6ccccc65)CC4)ncnc3n2C)o1
Ans: 50 to 250 nM

Q: Quick one: give measured IC50 for CCn1c(-c2cnc(OC)nc2)nc2c(N3CCC(n4c(=O)[nH]c5ccccc54)CC3)ncnc21
Ans: < 50 nM

Q: Quick one: give measured IC50 for CCn1c(C(=O)NCc2nnc(C)o2)nc2c(N3CCC4(CC3)C(=O)Nc3ccccc34)ncnc21
Ans: 250 to 500 nM

Q: Quick one: give measured IC50 for Cn1c(C(=O)NCC2CCCCO2)nc2c(N3CCC4(CC3)C(=O)Nc3ccccc34)ncnc21 (stereo not shown)
Ans: 500 to 1500 nM

Q: Quick one: give measured IC50 for CCn1c(-c2cnc(NC)nc2)nc2c(N3CCC(n4c(=O)[nH]c5ccccc54)CC3)ncnc21
Ans: < 50 nM

Q: Quick one: give measured IC50 for Cn1ncc(-c2nc3c(N4CCC(n5c(=O)[nH]c6ccccc65)CC4)ncnc3n2C)c1Cl
Ans: < 50 nM

Q: Quick one: give measured IC50 for CCn1c(-c2ccc(C(F)(F)F)nc2)nc2c(N3CCC4(CC3)C(=O)Nc3ccccc34)ncnc21
Ans: < 50 nM

Q: Quick one: give measured IC50 for Cn1c(-n2ccnc2)nc2c(N3CCC(n4c(=O)[nH]c5ccccc54)CC3)ncnc21
Ans: 50 to 250 nM

Q: Quick one: give measured IC50 for Cn1c(C(=O)NC(C)(C)C)nc2c(N3CCC4(CC3)C(=O)Nc3ccccc34)ncnc21
Ans: 50 to 250 nM

Q: Quick one: give measured IC50 for CCn1c(C(=O)NCCC(C)C)nc2c(N3CCC(n4c(=O)[nH]c5ccccc54)CC3)ncnc21
Ans: 50 to 250 nM

Q: Quick one: give measured IC50 for CCn1c(-c2ccc(C(F)(F)F)nc2)nc2c(N3CCC(n4c(=O)[nH]c5ncccc54)CC3)ncnc21
Ans: < 50 nM

Q: Quick one: give measured IC50 for CC(C)CCn1cc(-c2nc3c(N4CCC(n5c(=O)[nH]c6ccccc65)CC4)ncnc3n2C)cn1
Ans: 50 to 250 nM

Q: Quick one: give measured IC50 for CCn1c(C(=O)NCC2CCC2)nc2c(N3CCC4(CC3)C(=O)Nc3ccccc34)ncnc21
Ans: < 50 nM

Q: Quick one: give measured IC50 for CCn1c(-c2ccc(C(F)(F)F)nc2)nc2c(N3CCC(n4c(=O)[nH]c5ccccc54)CC3)ncnc21
Ans: < 50 nM

Q: Quick one: give measured IC50 for Cc1cccc(Cl)c1S(=O)(=O)N1CCN(c2ncnc3c2nc(-c2cnn(C)c2)n3C)CC1
Ans: 250 to 500 nM

Q: Quick one: give measured IC50 for CCCCCCNC(=O)c1nc2c(N3CCC(n4c(=O)[nH]c5ccccc54)CC3)ncnc2n1C
Ans: 250 to 500 nM

Q: Quick one: give measured IC50 for Cn1c(C(=O)NC2CCC(F)(F)CC2)nc2c(N3CCC4(CC3)C(=O)Nc3ccccc34)ncnc21
Ans: 50 to 250 nM

Q: Quick one: give measured IC50 for Cn1c(C(=O)NCC2CC2)nc2c(N3CCC4(CC3)OCc3ccccc34)ncnc21
Ans: 500 to 1500 nM

Q: Quick one: give measured IC50 for CCCNC(=O)c1nc2c(N3CCC(n4c(=O)[nH]c5ccccc54)CC3)ncnc2n1C
Ans: 50 to 250 nM
